Data provenance: paper PMC9352680

Target: T1, PUF4 RNA-binding domain (Saccharomyces cerevisiae, UniProt P25339 537-888)
T1 sequence: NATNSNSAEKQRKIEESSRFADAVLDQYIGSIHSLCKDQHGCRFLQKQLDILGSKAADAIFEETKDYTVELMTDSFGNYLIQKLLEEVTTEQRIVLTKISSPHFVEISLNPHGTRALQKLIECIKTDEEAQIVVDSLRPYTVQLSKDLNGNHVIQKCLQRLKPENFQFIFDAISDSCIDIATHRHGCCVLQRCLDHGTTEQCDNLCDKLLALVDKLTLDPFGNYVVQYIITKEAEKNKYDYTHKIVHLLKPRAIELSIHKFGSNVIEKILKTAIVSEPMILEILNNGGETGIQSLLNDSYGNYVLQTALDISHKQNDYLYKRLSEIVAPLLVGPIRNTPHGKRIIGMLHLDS
Assay: Mg; RNA-MaP; 20 mM Na-HEPES pH 7.4, 30 mM KOAc, 0.75 mM MgCl2, 0.1% Tween-20, 5% glycerol, 0.1 mg/mL BSA, 2 mM DTT; 25 C; 0.0125-409.6 nM protein
Details: tags: N-His6-TEV cleaved; C-SNAP kept, Cy3B-labelled; label: tethered on chip by stalled RNA polymerase
Quantity Name: pKd
In plain terms, pKd is the concentration in mol/L turned into minus its base-10 logarithm.

Identify pKd associated with the binder UCUCUUUGUAACUCAUCUCUU (ssRNA) [Ic_S1_P4E.1_K4.1_C4.1_H4.1_A4.1_[T5A]_[A6C]_F4.1_[T8C]_T4.1]
6.43

Identify pKd associated with the binder UCUCUUUGUAUAGCCUUCUCUU (ssRNA) [Ic_S1_P5E.1_K5.1_C5.1_H5.1_A5.1_[T6A]_[A7G]_F5.1_[T8C]_[T9C]_[A10T]_T5.1]
6.94

Identify pKd associated with the binder UCUCUUUGUACAUUAUCUCUU (ssRNA) [Ic_S1_P4E.1_K4.1_C4.1_H4.1_A4.1_[T5C]_F4.1_T4.1]
9.22

Identify pKd associated with the binder UCUCUUUGUAUUCAUAUCUCUU (ssRNA) [Ib_S1_P5E.1_K5.1_C5.1_H5.1_A5.1_[A7C]_F5.1_[T8A]_T5.1]
7.85

Identify pKd associated with the binder UCUCUUCAUAUAUAUUAACUCUCUU (ssRNA) [Id_ii_S1_P4E.3_K4.2_C4.2_[T-1A]_H4.2_A4.1_F4.1_T4.2_[G10A]_[T11C]]
7.40

Identify pKd associated with the binder UCUCUUGUUAUAUUAUUAGUUCUCUU (ssRNA) [Id_ii_S1_P5E.3_K5.2_C5.2_[C-2G]_H5.2_A5.1_F5.1_T5.2_[T11G]_[A12T]]
7.81

Identify pKd associated with the binder Ib_S4_P5E.1_K5.1_C5.1_H5.1_[G2A]_A5.1_F5.1_[T8G]_T5.1 (ssRNA) RNA: UUUGACAACUGAUCGUUCUUUCUUAUAUUAGUAUUCUUUCUCGAUCAGUUGUCUUU
6.20

Identify pKd associated with the binder UCUCUUUGUAAAGCUCUCUU (ssRNA) [Ic_S1_P3E.1_K3.1_C3.1_H3.1_A3.1_[T5A]_F3.1_[T7G]_[A8C]_T3.1]
6.00

Identify pKd associated with the binder Ie_S2_P5E.1_K5.1_C5.1_H5.1_[+3CTC]_A5.1_F5.1_T5.1 (ssRNA) RNA: UUUGAUUAAUAUGAUAUCGUUCUUUCUUGUCUCAUUAUUAUUCUUUCUCGAUAUCAUAUUAAUCUUU
7.99

Identify pKd associated with the binder ACAAACUAUAUAUUCACAAAC (ssRNA) [Ib_S3_P4E.1_K4.1_C4.1_H4.1_[G2A]_A4.1_F4.1_[A9C]_T4.1]
5.83

Identify pKd associated with the binder If_S2_P4E.3_K4.2_C4.2_H4.2_A4.1_F4.1_T4.2 (ssRNA) RNA: UUUGAUUAAUAUGAUAUCGUUCUUUCUCUUAUAUAUUAGUUUCUUUCUCGAUAUCAUAUUAAUCUUU
7.98

Identify pKd associated with the binder Ic_S4_P5E.1_K5.1_C5.1_H5.1_A5.1_[T5A]_[T6A]_[A7C]_F5.1_[T8G]_[T9C]_[A10C]_T5.1 (ssRNA) RNA: UUUGACAACUGAUCGUUCUUUCUUGUAAACGCCUUCUUUCUCGAUCAGUUGUCUUU
6.23
